- System: Plasmodium berghei
- measurement.protocol: Screen against P. berghei liver stage (PbLuc), transformed with Luciferase, at 10uM
- Assay type: functional, HepG2
- measurement.setup: tested at 10 uM
Screen size: about 69,000 compounds; about 8,600 (12%) showed an effect of 50% or more. The entries come from a sample that favours strong results as a whole.
Quick rule: INHIBITION of at least 30% means 1, below that means -1.

Look over these answered cases.
CCc1ncc2c(n1)CN(CC(=O)Nc1ccc(Cl)cn1)CC2    1
Cn1cccc1C(=O)N1CCc2c(CNS(C)(=O)=O)cncc2C1    -1

Now look at this entry.
Exercise: Does INHIBITION meet or surpass 30% for CC(C)COC(C)C(=O)NCc1ccc(Cn2ccnc2)cc1 (stereo not given) ?
Key: 1
